// reported viability at 24 h, 10 µM per item
assay: Cytotoxicity against mouse L5178Y cells assessed as cell viability at 10 uM after 24 hrs by MTT assay; type: cell-based; conditions: read-out: Activity
The reply should contain only the number, in %.

| MOLECULE | PROPERTY MEASURED | DATA VALUE |
| --- | --- | --- |
| COC(=O)C1=CN(Cc2ccc(C)cc2)C=CC1c1ccccc1 (configuration not stated) | viability at 24 h, 10 µM | 75 |

Now consider the entry below.
Problem: I have this molecule here, CCOC(=O)C1=CN(Cc2ccc(OC)cc2)C=CC1c1ccccc1 (configuration not stated) , and I need its recorded viability at 24 h, 10 µM.
Result: 100
